Known GI50 of a selection of molecules
System: T-47D breast
EXPERIMENT SUMMARY: NCI tumour cell line growth inhibition, 48 h

| MOLECULE | GI50 |
| --- | --- |
| COc1cnc2c(c1)C(=O)c1c-2n(CCCNC(C)C)c(=O)c2cc(Cl)ccc12 | 0.278 µM |
| COc1cc(C2CC(c3cccc(Br)c3)=NN2C(C)=O)cc(OC)c1OC (configuration not stated) | 0.372 µM |
| N#Cc1c(NN)n(C2OC(CO)C(O)C2O)c2ncnc(N)c12 (configuration not stated) | 0.0191 µM |
| O=C(CNc1ccc(Cl)cc1)Nc1ccc(-c2nc3ccccc3s2)cc1 | 5.2 µM |
| CCN1CCN(C(c2ccc(C(F)(F)F)cc2)c2ccc3cccnc3c2O)CC1 (configuration not stated) | 4.19 µM |
| CC(C)=CC/C=C(/C)[C@H]1CC[C@]2(C)[C@@H]1CC[C@@H]1[C@@]3(C)CCCNC(C)(C)[C@@H]3CC[C@]12C | 2.09 µM |
| COc1ccc(/C=C(/C(=O)N2CCN(c3ccccc3)CC2)c2cc(OC)c(OC)c(OC)c2)cc1O | 51.3 µM |
